Biological target: GABA A α5 (Homo sapiens, UniProt P18507+P31644)
Construct: membranes prepared from cell pellets
Experiment: [3H]flumazenil competition binding, human GABA A α5β3γ2 receptors in HEK293 cell membranes
Conditions: human receptor α5β3γ2 transiently transfected in HEK293; 0.5 nM [3H]flumazenil; 1 hour at 4° C.; means of two determinations; read-out: hKi GABA A α5
pKi: −log10 of the molar value.
pKi overview
readoutName: pKi

molecule="Cc1onc(-c2ccc(F)cc2)c1COc1cc(C(=O)NCC(C)(C)CO)n(C)n1 [Example 65]" obsvalue=8.24
molecule="Cn1nc(OCc2c(-c3ccc(F)cc3)noc2CO)cc1C(=O)NC1CCOCC1 [Example 91]" obsvalue=9.00
molecule="Cc1onc(-c2ccccn2)c1CNc1cc(C(=O)NC2(C)COC2)n(C)n1 [Example 162]" obsvalue=7.52
molecule="Cc1onc(-c2ccc(F)cc2)c1/C=C/c1cc(C(=O)N2CC3(COC3)C2)[nH]n1 [Example 137]" obsvalue=8.85
molecule="CCNC(=O)c1cc(/C=C/c2c(-c3ccc(F)cc3)noc2C)nn1C [Example 123]" obsvalue=8.89
molecule="Cc1onc(-c2ccc(F)cc2)c1CNc1cc(C(=O)NC2CCOCC2)[nH]n1 [Example 156]" obsvalue=8.41
molecule="Cc1onc(-c2ccc(F)cn2)c1CNc1cc(C(=O)NC(C)C)n(C)n1 [Example 163]" obsvalue=7.00
molecule="CCCCc1noc(C)c1COc1cc(C(=O)NC2CCOC2)[nH]n1 (single isomer, unassigned; (+)) [Example 35]" obsvalue=8.22
molecule="Cn1nc(OCc2c(-c3ccc(Cl)cc3)noc2CO)cc1C(=O)NC1CCOCC1 [Example 101]" obsvalue=9.05
